B1: NADP-dependent isopropanol dehydrogenase, P25984 (parent)
chain: MKGFAMLGINKLGWIEKERPVAGSYDAIVRPLAVSPCTSDIHTVFEGALGDRKNMILGHEAVGEVVEVGSEVKDFKPGDRVIVPCTTPDWRSLEVQAGFQQHSNGMLAGWKFSNFKDGVFGEYFHVNDADMNLAILPKDMPLENAVMITDMMTTGFHGAELADIQMGSSVVVIGIGAVGLMGIAGAKLRGAGRIIGVGSRPICVEAAKFYGATDILNYKNGHIVDQVMKLTNGKGVDRVIMAGGGSETLSQAVSMVKPGGIISNINYHGSGDALLIPRVEWGCGMAHKTIKGGLCPGGRLRAEMLRDMVVYNRVDLSKLVTHVYHGFDHIEEALLLMKDKPKDLIKAVVIL

Variants of: B1
Details: Clostridium beijerinckii; pH 8.25; Thermal; DSC; Sodium phosphate 25 mM; NaCl 1 M; reversible: yes; structure 1KEV; whole UniProt chain shown
Hi, to clarify the labels: class 1 covers change of melting temperature, mutant - wild type (higher = more stable) from 0.7 °C upward, class 0 covers anything below 0.7 °C.

Reference set, count: 2
[[record]]
var = "L316P"
group_label = "class 1"

[[record]]
var = "L275P"
group_label = "class 0"


Request: Could you tell me if the measured change of melting temperature, mutant - wild type (higher = more stable) of `A347P` reaches 0.7 °C or more?
Result: class 1

Request: Could you tell me if the measured change of melting temperature, mutant - wild type (higher = more stable) of `H222P` reaches 0.7 °C or more?
Result: class 0

Request: Could you tell me if the measured change of melting temperature, mutant - wild type (higher = more stable) of S24P L316P reaches 0.7 °C or more?
Result: class 1

Request: Could you tell me if the measured change of melting temperature, mutant - wild type (higher = more stable) of `A177P` reaches 0.7 °C or more?
Result: class 0

Request: Could you tell me if the measured change of melting temperature, mutant - wild type (higher = more stable) of `T149P` reaches 0.7 °C or more?
Result: class 0

Request: Could you tell me if the measured change of melting temperature, mutant - wild type (higher = more stable) of `S24P` reaches 0.7 °C or more?
Result: class 1

Hey, just so you know, these numbers are from FireProtDB (doi:10.1002/pro.5560070509).
